Test: Caco-2 assay
Type: in vitro ADME
Details: human; Caco-2 efflux ratio PappBA/PappAB; 10 μM test compound, pH 7.4; read-out: Caco ER
Please respond with True when measured efflux ratio at 90 min, 10 μM is strictly beneath 3, and with False in all other cases.

• C[C@H](Oc1cc(Nc2ncco2)nc(-c2noc3c2CCC[C@@]32CCCc3sc(N)c(C#N)c32)n1)[C@@H]1CCCN1C = False
• C[C@H](Oc1cc(O[C@@H]2CNC2(C)C)nc(-c2noc3c2CCC[C@@]32CCCc3sc(N)c(C#N)c32)n1)[C@@H]1CCCN1C = False
• C[C@H](Oc1cc(Nc2cccnn2)nc(-c2noc3c2CCC[C@@]32CCCc3sc(N)c(C#N)c32)n1)[C@@H]1CCCN1C = False
• C[C@H](Oc1cc(O[C@@H]2CNC[C@@H]2F)nc(-c2noc3c2CCC[C@@]32CCCc3sc(N)c(C#N)c32)n1)[C@@H]1CCCN1C = False
• C[C@H](Oc1cc(Nc2ccccn2)nc(-c2noc3c2CCC[C@@]32CCCc3sc(N)c(C#N)c32)n1)[C@@H]1CCCN1C = False
• COCCOc1cc(O[C@@H](C)[C@@H]2CCCN2C)nc(-c2noc3c2CCC[C@@]32CCCc3sc(N)c(C#N)c32)n1 = True

Reference source: patent US20250129095A1
